# system.tested: ACC (acetyl CoA carboxylase) purified from liver of male SD rat (Rattus norvegicus)
# Construct: applied to a monomeric avidin sepharose column, and washed with buffer B. The ACC was eluted with buffer B containing 2 mM d-biotin; from tissue; host or cells: liver of male SD rat
# experiment.summary: Measurement of ACC inhibition activity ([14C]-NaHCO3 incorporation)
# Type: biochemical
# details: ACC inhibition activity rate at 1 μM; Table 4-IV, Mode 4 benzenediamine compounds (numbers = x-IV); read-out: ACC Inhibition (%)
Kindly supply the reported inhibition at 1 µM values for the records listed here.
Reply numerically in %, unit not repeated.

Identify measured inhibition at 1 µM associated with CCCCCC(=O)NS(=O)(=O)c1ccccc1NC(=O)c1ccc(NCCC(C)C)c(NC(=O)c2cc(C(F)(F)F)cc(C(F)(F)F)c2)c1 [compound 20]
85

Output inhibition at 1 µM of CCCCCC(=O)NS(=O)(=O)c1ccccc1NC(=O)c1ccc(Nc2ccc(C(F)(F)F)cc2)c(NC(=O)c2cccc(C(F)(F)F)c2)c1 [compound 27]
91

Give the value of inhibition at 1 µM reported for the following: Cc1ccccc1S(=O)(=O)NC(=O)CC(NC(=O)c1ccc(N(C)CCC(C)C)c(NCc2ccccc2)c1)C1CCCCC1 (stereo not drawn) [compound 82]
56

Please give measured inhibition at 1 µM of the following entry: CC(C)CCN(C)c1ccc(C(=O)NC(CC(=O)NS(=O)(=O)c2ccccc2)C2CCCCC2)cc1NCc1ccccc1 (stereo not drawn) [compound 54]
87

Supply measured inhibition at 1 µM of CC(C)CCN(C)c1ccc(C(=O)NC(CC(=O)NS(=O)(=O)c2ccc(C(=O)O)cc2)C2CCCCC2)cc1NCc1ccccc1 (stereo not drawn) [Compound 138-IV] in your reply.
63

State its inhibition at 1 µM for this compound: CC(C)CCN(C)c1ccc(-c2noc(-c3cccc(C(=O)NS(=O)(=O)c4cn(C)cn4)c3)n2)cc1NCc1ccc(OCCO)cc1 [Compound 137-IV]
79

====

Give measured inhibition at 1 µM for each item. Keep answers brief.
# system.tested: ACC (acetyl CoA carboxylase) purified from liver of male SD rat (Rattus norvegicus, UniProt P11497)
# Construct: applied to a monomeric avidin sepharose column, and washed with buffer B. The ACC was eluted with buffer B containing 2 mM d-biotin; from tissue; host or cells: liver of male SD rat
# experiment.summary: Measurement of ACC inhibition activity ([14C]-NaHCO3 incorporation)
# Format: biochemical
# details: ACC inhibition activity rate at 1 μM; Table 4-A, further compounds of Modes 2 and 3; read-out: ACC Inhibition (%)
Write the answer as a number in %, unit excluded.

Specify inhibition at 1 µM for O=C(NS(=O)(=O)c1cccc(-c2nc(-c3ccc(-c4csc(-c5ccccc5)n4)cc3)no2)c1)c1cccnc1 and stop.
84

Give inhibition at 1 µM for the following molecule: Cc1ccccc1S(=O)(=O)NC(=O)c1cccc(-c2nc(-c3ccc(-c4csc(-c5ccccc5)n4)cc3)no2)c1
100

Give reported inhibition at 1 µM value for O=C(/C=C/c1ccccc1)NS(=O)(=O)c1cccc(-c2nc(-c3ccc(-c4csc(-c5ccccc5)n4)cc3)no2)c1
100

Fill in reported inhibition at 1 µM for this entry: O=C(NS(=O)(=O)c1cccc(-c2nc(-c3ccc(-c4csc(-c5ccccc5)n4)cc3)no2)c1)c1cccs1
83

For the molecule Nc1ccc(S(=O)(=O)NC(=O)c2cccc(-c3nc(-c4ccc(-c5csc(-c6ccccc6)n5)cc4)no3)c2)cc1 , give its reported inhibition at 1 µM.
96

Tell me its inhibition at 1 µM given COc1cccc(OC)c1C(=O)NS(=O)(=O)c1cccc(-c2nc(-c3ccc(-c4csc(-c5ccccc5)n4)cc3)no2)c1 as the entry.
79

Look up and report measured inhibition at 1 µM for this entry: Nc1ccccc1S(=O)(=O)NC(=O)c1cccc(-c2nc(-c3ccc(-c4csc(-c5ccccc5)n4)cc3)no2)c1
96

For the molecule CCN(CC)c1ccc(-c2csc(-c3ccc(-c4csc(-c5cccc(S(=O)(=O)NC(=O)c6ccncc6)c5)n4)cc3)n2)cc1 , give its reported inhibition at 1 µM.
65

Look up and state reported inhibition at 1 µM for COC(=O)c1ccc(S(=O)(=O)NC(=O)c2cccc(-c3nc(-c4ccc(-c5csc(-c6ccccc6)n5)cc4)no3)c2)cc1
92

Consider the molecule O=C(NS(=O)(=O)c1cccc(-c2nc(-c3ccc(-c4csc(-c5ccccc5)n4)cc3)no2)c1)c1ccccc1 . State its measured inhibition at 1 µM.
94

Recall and state the measured inhibition at 1 µM for CC(C)CCn1c(-c2ccccc2)nc2cc(-c3nc(-c4cccc(C(=O)NS(=O)(=O)c5ccccc5)c4)no3)ccc21 .
72

Give reported inhibition at 1 µM value for O=C(NS(=O)(=O)c1cccc(-c2nc(-c3ccc(-c4csc(-c5ccccc5)n4)cc3)no2)c1)c1ccc(-n2ccnc2)cc1
100

Supply reported inhibition at 1 µM belonging to this molecule: Cn1cnc(S(=O)(=O)NC(=O)c2cccc(-c3nc(-c4ccc(-c5csc(-c6ccccc6)n5)cc4)no3)c2)c1
96

Annotate the molecule O=C(O)c1ccc(S(=O)(=O)NC(=O)c2cccc(-c3nc(-c4ccc(-c5csc(-c6ccccc6)n5)cc4)no3)c2)cc1 with its measured inhibition at 1 µM.
97

Give recorded inhibition at 1 µM. O=C(NS(=O)(=O)c1ccc(-c2nc(-c3ccc(-c4csc(-c5ccccc5)n4)cc3)no2)cc1)c1ccccc1
98

====

# system.tested: ACC (acetyl CoA carboxylase) purified from liver of male SD rat (Rattus norvegicus, UniProt P11497)
# Construct: applied to a monomeric avidin sepharose column, and washed with buffer B. The ACC was eluted with buffer B containing 2 mM d-biotin; from tissue; host or cells: liver of male SD rat
# experiment.summary: Measurement of ACC inhibition activity ([14C]-NaHCO3 incorporation)
# Format: biochemical
# details: ACC inhibition activity rate at 1 μM; Table 3-I, Mode 1 quinoline compounds (numbers = x-I); read-out: ACC Inhibition (%)
endpoint.name: inhibition at 1 µM (%)
Give a bare numeral; the unit % is implied.

Kindly indicate its recorded inhibition at 1 µM. Item: CCCCS(=O)(=O)NC(=O)CC(NC(=O)c1ccc2nc(-c3cc(C(F)(F)F)cc(C(F)(F)F)c3)ccc2c1)c1cccc2ccccc12 (stereo not drawn)
50

Please indicate inhibition at 1 µM recorded for CCCCS(=O)(=O)NC(=O)c1ccccc1NC(=O)c1ccc2nc(-c3cccc(OC(F)(F)F)c3)ccc2c1
48

Assign inhibition at 1 µM to the following record: CC(C)c1ccc(S(=O)(=O)NC(=O)C[C@H](NC(=O)c2ccc3nc(-c4cc(C(F)(F)F)cc(C(F)(F)F)c4)ccc3c2)C2CCCCC2)cc1
87

Provide one value: measured inhibition at 1 µM of CCCCS(=O)(=O)NC(=O)CC1(NC(=O)c2ccc3nc(-c4cc(C(F)(F)F)cc(C(F)(F)F)c4)ccc3c2)CCCCC1
45

Please indicate inhibition at 1 µM recorded for CCCCCC(=O)NS(=O)(=O)c1ccccc1NC(=O)c1ccc2nc(-c3cc(C(F)(F)F)cc(C(F)(F)F)c3)ccc2c1
72

Answer with the recorded inhibition at 1 µM of CCCCS(=O)(=O)NC(=O)[C@@H]1C[C@H]2C[C@H](C2(C)C)[C@@]1(C)NC(=O)c1ccc2nc(-c3cc(C(F)(F)F)cc(C(F)(F)F)c3)ccc2c1 only.
74

Identify measured inhibition at 1 µM corresponding to CCCCS(=O)(=O)NC(=O)c1ccccc1NC(=O)c1ccc2nc(-c3cc(C(F)(F)F)cc(C(F)(F)F)c3)ccc2c1
78

Name the recorded inhibition at 1 µM of the compound listed here: O=C(Nc1ccccc1C(=O)O)c1ccc2nc(-c3cc(C(F)(F)F)cc(C(F)(F)F)c3)ccc2c1
53

# return recorded inhibition at 1 µM for input CCCCCC(=O)NS(=O)(=O)c1ccccc1NC(=O)c1ccc2nc(-c3cccc(C(F)(F)F)c3F)ccc2c1
50

# return recorded inhibition at 1 µM for input CCCCS(=O)(=O)NC(=O)[C@@H]1C[C@@H]2C[C@@H](C2(C)C)[C@]1(C)NC(=O)c1ccc2nc(-c3cc(C(F)(F)F)cc(C(F)(F)F)c3)ccc2c1
46

Provide inhibition at 1 µM value for the following compound: CCCCCC(=O)NS(=O)(=O)c1ccccc1NC(=O)c1ccc2nc(-c3cc(C(F)(F)F)ccc3F)ccc2c1
90

Give the reported value of inhibition at 1 µM for this record: CC(C)(C)c1ccc(C(=O)NS(=O)(=O)c2ccccc2NC(=O)c2ccc3nc(-c4cc(C(F)(F)F)cc(C(F)(F)F)c4)ccc3c2)cc1
98

State, in one line, measured inhibition at 1 µM of CC(C)c1ccc(S(=O)(=O)NC(=O)CC(NC(=O)c2ccc3nc(-c4cc(C(F)(F)F)cc(C(F)(F)F)c4)ccc3c2)c2ccccc2)cc1 (stereo not drawn)
62

# return recorded inhibition at 1 µM for input CCCCS(=O)(=O)NC(=O)CC(NC(=O)c1ccc2nc(-c3cc(C(F)(F)F)cc(C(F)(F)F)c3)ccc2c1)c1cccc(N)c1 (stereo not drawn)
45

Determine from records and report inhibition at 1 µM for CCCCS(=O)(=O)NC(=O)C1CCCCCC[C@@H]1NC(=O)c1ccc2nc(-c3cc(C(F)(F)F)cc(C(F)(F)F)c3)ccc2c1 (stereo partly drawn)
70

Answer with the recorded inhibition at 1 µM for the compound listed here: O=C(O)c1ccc(-c2ccc3nc(-c4cc(C(F)(F)F)cc(C(F)(F)F)c4)ccc3c2)o1
34

// fetch inhibition at 1 µM given entry CCCCCC(=O)NS(=O)(=O)c1ccccc1NC(=O)c1ccc2nc(-c3cc(C(F)(F)F)cc(C(F)(F)F)c3)c(CCCl)cc2c1
50

Provide measured inhibition at 1 µM value, entry: CC(C)c1ccc(S(=O)(=O)NC(=O)c2ccccc2-c2csc(-c3ccc4nc(-c5cc(C(F)(F)F)cc(C(F)(F)F)c5)ccc4c3)n2)cc1
97

Specify measured inhibition at 1 µM for CCCCS(=O)(=O)NC(=O)CC(C)(NC(=O)c1ccc2nc(-c3cc(C(F)(F)F)cc(C(F)(F)F)c3)ccc2c1)c1ccccc1 (stereo not drawn) .
47

Return value of inhibition at 1 µM for input CCCCS(=O)(=O)NC(=O)C1CCc2ccccc2[C@@H]1NC(=O)c1ccc2nc(-c3cc(C(F)(F)F)cc(C(F)(F)F)c3)ccc2c1 (stereo partly drawn) , no commentary.
59

Supply recorded inhibition at 1 µM for CCCCCC(=O)NS(=O)(=O)c1ccccc1NC(=O)c1ccc2nc(-c3cccc(SC(F)(F)F)c3)ccc2c1 here.
61
